Data provenance: patent US20230398125A1

# Test system: HBV (HepG2 AD38 genotype D)
# assaySummary: HBV infection of primary human hepatocytes, extracellular HBV DNA by qPCR
# Type: cell-based, hepatitis B virus
# details: Hepatitis B virus, HepG2, Study #01, #02 and #03 merged, four parameter regression; read-out: EC50 from fitted curve of merged data
assayMetric: EC50 (nM)

CCCCC1CN(c2ccccc2)c2cc(SC)c(O/C=C(\F)C(=O)O)cc2S(=O)(=O)N1C (stereo not shown) [Compound 1] :: 4.9

----------
# assaySummary: Pharmacokinetic phase: plasma exposure after oral dosing in non-infected PXB mice
# Format: in vivo
# details: PXB, mouse, plasma, po, 30 mg/kg, non-infected PXB mice, 30 mg/kg p.o., 0.5 h, animal 301; read-out: Plasma conc.
assayMetric: concentration at 0.5 h

CCCCC1CN(c2ccccc2)c2cc(SC)c(O/C=C(\F)C(=O)O)cc2S(=O)(=O)N1C (stereo not shown) [Compound 1] :: 1880 ng/mL

----------
# assaySummary: Pharmacokinetic phase: plasma exposure after oral dosing in non-infected PXB mice
# Assay type: in vivo
# details: PXB, mouse, plasma, po, 30 mg/kg, non-infected PXB mice, 30 mg/kg p.o., 4 h, animal 401; read-out: Plasma conc.
assayMetric: concentration at 4 h (ng/mL)

CCCCC1CN(c2ccccc2)c2cc(SC)c(O/C=C(\F)C(=O)O)cc2S(=O)(=O)N1C (stereo not shown) [Compound 1] :: 1120

----------
# assaySummary: Pharmacokinetic phase: plasma exposure after oral dosing in non-infected PXB mice
# Type: in vivo
# details: PXB, mouse, plasma, po, 10 mg/kg, non-infected PXB mice, 10 mg/kg p.o., 4 h, animal 201; read-out: Plasma conc.
assayMetric: concentration at 4 h (ng/mL)

CCCCC1CN(c2ccccc2)c2cc(SC)c(O/C=C(\F)C(=O)O)cc2S(=O)(=O)N1C (stereo not shown) [Compound 1] :: 111

----------
# assaySummary: Pharmacokinetic phase: plasma exposure after oral dosing in non-infected PXB mice
# Format: in vivo
# details: PXB, mouse, plasma, po, 30 mg/kg, non-infected PXB mice, 30 mg/kg p.o., 1 h, mean of 3 animals; read-out: Plasma conc. Mean ± SD
assayMetric: concentration at 1 h (ng/mL)

CCCCC1CN(c2ccccc2)c2cc(SC)c(O/C=C(\F)C(=O)O)cc2S(=O)(=O)N1C (stereo not shown) :: 3780

----------
# assaySummary: Pharmacokinetic phase: plasma exposure after oral dosing in non-infected PXB mice
# Assay type: in vivo
# details: PXB, mouse, plasma, po, 30 mg/kg, non-infected PXB mice, 30 mg/kg p.o., 2 h, animal 302; read-out: Plasma conc.
assayMetric: concentration at 2 h (ng/mL)

CCCCC1CN(c2ccccc2)c2cc(SC)c(O/C=C(\F)C(=O)O)cc2S(=O)(=O)N1C (stereo not shown) :: 590

----------
# assaySummary: Pharmacokinetic phase: plasma exposure after oral dosing in non-infected PXB mice
# Assay type: in vivo
# details: PXB, mouse, plasma, po, 10 mg/kg, non-infected PXB mice, 10 mg/kg p.o., 1 h, animal 201; read-out: Plasma conc.
assayMetric: concentration at 1 h (ng/mL)

CCCCC1CN(c2ccccc2)c2cc(SC)c(O/C=C(\F)C(=O)O)cc2S(=O)(=O)N1C (stereo not shown) [Compound 1] :: 492

----------
# assaySummary: XTT cell toxicity in primary human hepatocytes
# Assay type: cell-based
# details: human, primary human hepatocytes, Study #01, 18 h post-infection section; read-out: TC50
Where a name gives a salt, the structure may show the parent alone.
assayMetric: CC50 at 10 days

CC(C)OC(=O)OCOP(=O)(CO[C@H](C)Cn1cnc2c(N)ncnc21)OCOC(=O)OC(C)C [Tenofovir disoproxil fumarate, reference compound] :: > 1 µM
